B1: tRNA (parent)
chain: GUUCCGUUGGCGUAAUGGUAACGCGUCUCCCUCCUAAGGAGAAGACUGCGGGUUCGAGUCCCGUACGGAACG

Variants of: B1
Assay: yeast fitness, log relative to wild type (ln ratio); higher = fitter; tRNA-Arg(CCU), competitive growth, 37 C, 1 M NaCl
Below is a list of entries, each paired with its recorded yeast fitness (ln) value.

Record excerpt, results attached:
Recorded yeast fitness (ln) for U2C G6U A43C C66U A69G A70G , please?
-0.31

Recorded yeast fitness (ln) for U2C G6A C27U C46U C66A A70G , please?
-0.0252

Recorded yeast fitness (ln) for G6U A43C A70U , please?
-0.164

***
Recorded yeast fitness (ln) for G1A U2G G6A C27U C46U A69G C71U , please?
-0.269

Recorded yeast fitness (ln) for U2C G6A A43C C46U A70U , please?
-0.0234

Recorded yeast fitness (ln) for G1A U2G G6A C46U A69G A70G C71U , please?
-0.162
